Let's go through some recorded AC50 values for Thromboxane A2 receptor (Homo sapiens) together.

[
  {
    "Compound": "CN1C(=O)CN=C(c2ccccc2F)c2cc([N+](=O)[O-])ccc21 [FLUNITRAZEPAM]",
    "Tested on": "Thromboxane A2 receptor (Homo sapiens)",
    "AC50": "> 30 µM"
  }
]

Below are 2 compounds. Give each one its AC50.
1. CN(C)CCC=C1c2ccccc2CCc2ccccc21 [AMITRIPTYLINE]
2. CC1=C(CC(=O)O)c2cc(F)ccc2/C1=C\c1ccc([S+](C)[O-])cc1 (centres undefined)

Solution:
1: > 30 µM; 2: > 30 µM

Batch request: AC50 for each of the following compounds.
1. Cc1c(C)c2c(c(C)c1O)CCC(C)(COc1ccc(CC3SC(=O)NC3=O)cc1)O2 (centres undefined) [TROGLITAZONE]
2. O=C(O[C@H]1C[N+]2(CCCOc3ccccc3)CCC1CC2)C(O)(c1cccs1)c1cccs1 [ACLIDINIUM BROMIDE]
3. CCN(CC)CCCN(c1ccccc1)C1Cc2ccccc2C1 [APRINDINE]
4. CN1CCC(=C2c3ccccc3CC(=O)c3sccc32)CC1 [KETOTIFEN]

Solution:
> 30 µM
> 30 µM
> 10 µM
> 10 µM

Provide reported AC50 for each item, in the same order as listed.
1. CCN(CC)C(C)C(=O)c1ccccc1 (centres undefined) [DIETHYLPROPION]
2. C[C@H](Cn1cnc2c(N)ncnc21)OCP(=O)(O)O [TENOFOVIR ANHYDROUS]

Solution:
["> 30 µM", "> 30 µM"]

* * *

As a worked illustration, we turn to AC50 data collected for Sodium-dependent dopamine transporter (Homo sapiens, UniProt Q01959).
Where a SMILES comes first, the peptide text is derived from it.

Worked set:
[
  {
    "Compound": "CC(C)C[C@H](NC(=O)[C@H](Cc1ccccc1)NC(=O)c1cnccn1)B(O)O",
    "AC50": "> 30 µM"
  },
  {
    "Compound": "CC1=C(C(=O)O)N2C(=O)[C@@H](NC(=O)[C@H](N)C3=CCC=CC3)[C@H]2SC1",
    "AC50": "> 30 µM"
  },
  {
    "Compound": "CCN(CC)C(C)C(=O)c1ccccc1 (stereo not drawn)",
    "AC50": "> 30 µM"
  },
  {
    "Compound": "COc1ccc(C(Cl)=C(c2ccc(OC)cc2)c2ccc(OC)cc2)cc1",
    "AC50": "> 30 µM"
  },
  {
    "Compound": "CCOCC(O)COc1ccc(NC(=O)CC[S+](C)C)cc1 (stereo not drawn)",
    "AC50": "> 30 µM"
  }
]

For every listed record, write down its AC50.
1. O=C1CN=C(c2ccccc2Cl)c2cc([N+](=O)[O-])ccc2N1
2. C[C@]12C=CC(=O)C=C1CC[C@@H]1[C@@H]2[C@@H](O)C[C@@]2(C)[C@H]1CC[C@]2(O)C(=O)CO
3. COc1cc(N)cn[n+]1-c1ccccc1 [AMEZINIUM METILSULFATE]

Solution:
1: > 10 µM; 2: > 30 µM; 3: 5.7 µM

Please report AC50 for every entry that follows.
1. CC(=O)OCC1=C(C(=O)O)N2C(=O)[C@@H](NC(=O)Cc3cccs3)[C@H]2SC1
2. C[C@H](N)C(=O)N[C@@H](CCC(N)=O)C(=O)O [ALANYL GLUTAMINE] (H-Ala-Gln-OH)
3. COc1ccc(-n2nc(C(N)=O)c3c2C(=O)N(c2ccc(N4CCCCC4=O)cc2)CC3)cc1
4. Nc1ccc(S(=O)(=O)Nc2ncccn2)cc1
5. Oc1cc(Cl)ccc1Oc1ccc(Cl)cc1Cl
6. CC(=O)Oc1ccccc1C(=O)O

Solution:
1: > 30 µM; 2: > 30 µM; 3: > 30 µM; 4: > 10 µM; 5: 24 µM; 6: > 30 µM

* * *

Recorded below: AC50, system Histamine H3 receptor (Homo sapiens, UniProt Q9Y5N1). Note: assay procedure not described here.

[
  {
    "Compound": "CC(=O)Nc1ccc(/C=N/NC(N)=S)cc1",
    "Reported endpoint": "AC50",
    "Measured result": "> 30 µM"
  }
]

Parameter requested: AC50. Apply to each item below.
1. COc1cc(C[C@@H]2NCCc3cc(O)c(O)cc32)cc(OC)c1OC
2. CC(C)(Oc1ccc(C(=O)c2ccc(Cl)cc2)cc1)C(=O)O
3. N[C@@H](Cc1ccc(N(CCCl)CCCl)cc1)C(=O)O

Solution:
["> 30 µM", "> 30 µM", "> 30 µM"]

* * *

Would you kindly list AC50 for each of these compounds?
Biological target: Amine oxidase [flavin-containing] A (Homo sapiens, UniProt P21397); note: assay procedure not described here
Sequence (P21397 whole entry): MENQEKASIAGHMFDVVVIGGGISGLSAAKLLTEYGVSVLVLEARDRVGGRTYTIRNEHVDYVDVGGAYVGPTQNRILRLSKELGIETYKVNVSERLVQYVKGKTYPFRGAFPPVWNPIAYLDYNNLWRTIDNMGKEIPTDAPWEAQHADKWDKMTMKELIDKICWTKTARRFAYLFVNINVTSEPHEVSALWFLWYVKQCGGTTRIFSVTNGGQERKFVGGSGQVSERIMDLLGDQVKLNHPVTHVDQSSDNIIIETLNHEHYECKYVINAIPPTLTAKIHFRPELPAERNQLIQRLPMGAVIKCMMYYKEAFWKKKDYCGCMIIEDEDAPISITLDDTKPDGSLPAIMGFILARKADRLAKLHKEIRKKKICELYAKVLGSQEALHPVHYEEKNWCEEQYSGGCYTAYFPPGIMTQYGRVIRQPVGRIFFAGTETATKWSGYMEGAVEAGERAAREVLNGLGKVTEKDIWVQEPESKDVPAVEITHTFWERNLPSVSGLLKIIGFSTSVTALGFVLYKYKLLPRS
Type: functional

Check out these entries, answers already filled in.
[
  {
    "Smiles entry": "NCC1(CC(=O)O)CCCCC1",
    "AC50": "> 30 µM"
  },
  {
    "Smiles entry": "CCOc1ccc(Cc2nccc3cc(OCC)c(OCC)cc23)cc1OCC",
    "AC50": "> 30 µM"
  },
  {
    "Smiles entry": "CCn1c(=O)c2c(nc(/C=C/c3ccc(OC)c(OC)c3)n2C)n(CC)c1=O",
    "AC50": "> 30 µM"
  }
]

Okay, here is my list. What is AC50 for each of these?
1. N[C@@H](Cc1ccc(O)cc1)C(=O)O
2. COC(=O)N[C@H](C(=O)N1CC2(CC2)C[C@H]1c1ncc(-c2ccc3c(c2)C(F)(F)c2cc(-c4ccc5nc([C@@H]6[C@H]7CC[C@H](C7)N6C(=O)[C@@H](NC(=O)OC)C(C)C)[nH]c5c4)ccc2-3)[nH]1)C(C)C
3. CC(C)(Oc1ccc(C(=O)c2ccc(Cl)cc2)cc1)C(=O)O
4. COCC(=O)O[C@]1(CCN(C)CCCc2nc3ccccc3[nH]2)CCc2cc(F)ccc2[C@@H]1C(C)C

Solution:
1: > 30 µM; 2: > 30 µM; 3: > 30 µM; 4: > 30 µM

Exercise: For the compound shown here, OC[C@H]1NC[C@H](O)[C@@H](O)[C@H]1O , give the reported AC50.
Solution: > 30 µM

* * *

Values of AC50 reported for Vasopressin V2 receptor (Homo sapiens, UniProt P30518) appear below.

Example entries begin here.
[
  {
    "Molecule": "COc1ccc2c3c1O[C@H]1C(=O)CC[C@H]4[C@@H](C2)N(C)CC[C@]314 [HYDROCODONE]",
    "AC50": "> 30 µM"
  },
  {
    "Molecule": "CNC1(C)C2CCC(C2)C1(C)C (stereo not given)",
    "AC50": "> 10 µM"
  },
  {
    "Molecule": "Cc1ccc(S(=O)(=O)NC(=O)N[C@H]2[C@H]3CC[C@@](C)([C@H]2O)C3(C)C)cc1 [GLIBORNURIDE]",
    "AC50": "> 30 µM"
  },
  {
    "Molecule": "Cc1c(C)c2c(c(C)c1O)CCC(C)(COc1ccc(CC3SC(=O)NC3=O)cc1)O2 (stereo not given)",
    "AC50": "> 30 µM"
  },
  {
    "Molecule": "CC(C)(N)Cc1ccccc1",
    "AC50": "> 30 µM"
  }
]

Could you tell me AC50 for each of these molecules? They are listed below.
1. CCOC(=O)[C@H](CCc1ccccc1)N[C@@H](C)C(=O)N1Cc2ccccc2C[C@H]1C(=O)O
2. COC(=O)[C@H]1[C@H]2C[C@@H]3c4[nH]c5ccccc5c4CCN3C[C@H]2C[C@@H](OC(=O)c2cc(OC)c(OC)c(OC)c2)[C@@H]1OC
3. CN(C)CCOCC(=O)NC12CC3CC(CC(C3)C1)C2
4. CC(C)/N=c1\cc2n(-c3ccc(Cl)cc3)c3ccccc3nc-2cc1Nc1ccc(Cl)cc1
5. CC(=O)OCC1=C(C(=O)O)N2C(=O)[C@@H](NC(=O)CSc3ccncc3)[C@H]2SC1

Solution:
["> 30 µM", "> 30 µM", "> 30 µM", "> 30 µM", "> 10 µM"]

* * *

Data export: AC50 values recorded with Sodium-dependent serotonin transporter (Homo sapiens, UniProt P31645).
Sequence (P31645 whole entry): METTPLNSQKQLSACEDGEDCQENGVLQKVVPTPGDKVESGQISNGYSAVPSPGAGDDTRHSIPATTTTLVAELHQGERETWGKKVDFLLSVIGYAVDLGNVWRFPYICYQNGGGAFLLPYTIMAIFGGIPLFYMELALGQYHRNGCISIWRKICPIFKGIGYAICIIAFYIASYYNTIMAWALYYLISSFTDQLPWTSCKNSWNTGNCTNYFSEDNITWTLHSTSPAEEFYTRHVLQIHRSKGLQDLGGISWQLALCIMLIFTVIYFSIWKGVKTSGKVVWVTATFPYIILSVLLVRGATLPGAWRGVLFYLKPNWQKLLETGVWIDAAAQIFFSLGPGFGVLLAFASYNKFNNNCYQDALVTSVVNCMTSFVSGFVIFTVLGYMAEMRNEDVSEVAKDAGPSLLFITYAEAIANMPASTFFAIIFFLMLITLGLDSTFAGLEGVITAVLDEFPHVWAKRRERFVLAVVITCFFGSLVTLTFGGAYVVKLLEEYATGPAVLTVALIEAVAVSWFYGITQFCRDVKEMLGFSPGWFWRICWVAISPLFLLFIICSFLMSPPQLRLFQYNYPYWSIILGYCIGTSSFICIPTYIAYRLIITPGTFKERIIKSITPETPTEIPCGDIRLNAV

Observe how each entry below is paired with its result.
[
  {
    "Compound": "Cc1cccc(C)c1NC(=O)CN(CC(=O)O)CC(=O)O",
    "AC50": "> 30 µM"
  },
  {
    "Compound": "Cc1ccc(C(C)C)c(O)c1",
    "AC50": "> 30 µM"
  },
  {
    "Compound": "O=c1[nH]c2ccccc2n1CCN1CCN(c2cccc(C(F)(F)F)c2)CC1",
    "AC50": "17.7 µM"
  }
]

Could I get AC50 for every one of these entries?
1. CC(O)(CC(=O)O)CC(=O)O
2. CN1CCC(N(Cc2cccs2)c2ccccc2)CC1
3. CC(=O)OCC(=O)[C@@]1(O)CC[C@H]2[C@@H]3C[C@H](C)C4=CC(=O)C=C[C@]4(C)[C@H]3[C@@H](O)C[C@@]21C [METHYLPREDNISOLONE ACETATE]
4. CC(C)Cc1ccc(C(C)C(=O)OCc2ccccn2)cc1 (stereo unspecified)
5. O=C1[C@@H]2[C@H]3CC[C@H](C3)[C@@H]2C(=O)N1C[C@@H]1CCCC[C@H]1CN1CCN(c2nsc3ccccc23)CC1
6. N#Cc1ccnc(N2C(=O)CC[C@H]2C(=O)N(c2cncc(F)c2)[C@H](C(=O)NC2CC(F)(F)C2)c2ccccc2Cl)c1
7. COC(=O)N(C)c1c(N)nc(-c2nn(Cc3ccccc3F)c3ncccc23)nc1N

Solution:
["> 30 µM", "18 µM", "> 30 µM", "> 30 µM", "> 30 µM", "> 30 µM", "> 30 µM"]

I'm hoping you can list AC50 for every compound here, please.
1. O=C(OOC(=O)c1ccccc1)c1ccccc1 [BENZOYL PEROXIDE]
2. CCCCCCCC/C=C\CCCCCCCC(=O)O
3. CC1(C)C[C@@H]1C(=O)N/C(=C\CCCCSC[C@H](N)C(=O)O)C(=O)O
4. NC(=O)N/N=C/c1ccc([N+](=O)[O-])o1
5. Cc1c(C(C)C)c(=O)n(-c2ccccc2)n1C

Solution:
> 30 µM
> 30 µM
> 30 µM
> 30 µM
> 30 µM
